- tested.target: T1, human common cytokine receptor γ-chain (γc; IL-2Rγ; CD132), recombinant protein (human, UniProt P31785 23-262)
- T1 construct: also called human IL-2R subunit CD132
- T1 sequence: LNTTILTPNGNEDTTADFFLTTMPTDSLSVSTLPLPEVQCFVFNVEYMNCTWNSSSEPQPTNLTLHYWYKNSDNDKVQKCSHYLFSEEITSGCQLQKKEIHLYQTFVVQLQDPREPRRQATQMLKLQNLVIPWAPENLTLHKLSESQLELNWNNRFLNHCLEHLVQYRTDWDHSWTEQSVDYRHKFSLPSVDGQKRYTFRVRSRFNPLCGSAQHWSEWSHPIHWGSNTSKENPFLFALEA
- assay.remarks: P.E. binding ELISA
So basically: is OD450 nm under 1 OD450 nm? Then True. Not under? Then False.

Q: Quick check: does 34-MP04A12 VHH (periplasmic extract) (VHH, soluble VHH in periplasmic extract) VHH: QVQLVESGGGLVQAGSSLRLSCAASGRTLSRLAMGWFRQAPGKEREFVAVNSWGGDTFYADSVEGRFTYSRDNAKSAVYLQMNSLQPEDTAVYYCAAAPTSFATTAYSSSNSYAYWGQGAQVTVSS have OD450 nm under 1 OD450 nm?
A: False

Q: Quick check: does 29-MP04H02 VHH (periplasmic extract) (VHH, soluble VHH in periplasmic extract) VHH: QVQLVESGGGLVQAGGSLRLACVASGLTFDNYYMGWFRQAPGKEREFVAGIIWNGDHTAYADSIKGRFTISRDNAKNTAYLRMNSLKPEDTAVYYCAATFWIERATTPDIGQYAYWGQGTQVTVSS have OD450 nm under 1 OD450 nm?
A: True

Q: Quick check: does 27-MP04G01 VHH (periplasmic extract) (VHH, soluble VHH in periplasmic extract) VHH: QVQLVESGGGLVQAGGSLTLSCAAPGRTFGTDVVGWFRQAPGKEREFVASISRSGDGIYYDDSVKGRFTISRNNAWNTVNLQMNSLKVEDTAVYYCAAGDGWSTYDYWGQGTQVTVSS have OD450 nm under 1 OD450 nm?
A: True

Q: Quick check: does 38-MP07A11 VHH (periplasmic extract) (VHH, soluble VHH in periplasmic extract) VHH: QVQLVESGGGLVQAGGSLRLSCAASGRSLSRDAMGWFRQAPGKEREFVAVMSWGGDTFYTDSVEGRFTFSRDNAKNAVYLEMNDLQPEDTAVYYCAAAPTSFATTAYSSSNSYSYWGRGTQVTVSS have OD450 nm under 1 OD450 nm?
A: False

Q: Quick check: does 37-MP07F09 VHH (periplasmic extract) (VHH, soluble VHH in periplasmic extract) VHH: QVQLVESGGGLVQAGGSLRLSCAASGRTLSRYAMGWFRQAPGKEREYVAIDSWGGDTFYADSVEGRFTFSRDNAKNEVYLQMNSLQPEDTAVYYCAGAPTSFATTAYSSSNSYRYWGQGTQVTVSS have OD450 nm under 1 OD450 nm?
A: False
